System: glycogen synthase kinase-3 (GSK3A per assay name; protocol says GSK3B)
Experiment: GSK3 binders on small-molecule microarrays, primary screen, biochemical, small-molecule microarray, 635 nm fluorescence, GSK3A (AID 1103); further: the record names both GSK3A and GSK3B
Conditions: small-molecule microarray binding, fluorescence 635 nm; higher = more signal
composite z-score of 1 or higher: condition met. Under 1: condition not met.

Task: Is it the case that CC(C)N1C(=O)[C@@]2(c3ccc([N+](=O)[O-])cc3)CC(=O)N(CC34CC5CC(CC(C5)C3)C4)[C@@H]2c2ccc(CO)cc21 has composite z-score reaching or exceeding 1?
Output: condition not met

Others:
Task: Is it the case that CC(C)(C)OC(=O)CC[C@@]1(C(=O)NCCN2CCOCC2)N=C(c2ccc(OCCCO)cc2)O[C@@H]1c1ccccc1 has composite z-score reaching or exceeding 1?
Output: condition not met

Task: Is it the case that CC(C)N1CC=CC23O[C@@H]4C=CCOC(=O)[C@@H]4[C@H]2C(=O)N(CCO)[C@@H]3C1=O (stereo not given in full) has composite z-score reaching or exceeding 1?
Output: condition not met

Task: Is it the case that C=CCOC(=O)[C@@H]1[C@H]2C(=O)O[C@H](c3ccccc3)[C@H](c3ccccc3)N2[C@H](c2ccc(OCCOC(=O)[C@@H]3C[C@@H]4C(=O)N[C@@H](Cc5ccccc5)C(=O)N4[C@@H]3c3cccc(OCCO)c3)cc2)[C@@]12C(=O)Nc1ccc(I)cc12 has composite z-score reaching or exceeding 1?
Output: condition not met

Task: Is it the case that CCOC(=O)C[C@H]1[C@H](OC(=O)c2ccccc2-c2ccccc2)[C@@H](NC(=O)Cc2ccc(OC)cc2)c2cc(OCCCO)ccc2N1C(=O)c1ccccc1 has composite z-score reaching or exceeding 1?
Output: condition not met

Task: Is it the case that O=C1C2C=CC(C(O)c3ccc(-c4ccccc4)s3)N(n3cnnc3)C2C(=O)N1Cc1ccccc1 (stereo not given) has composite z-score reaching or exceeding 1?
Output: condition not met

Task: Is it the case that CCOC(=O)C1=CCC(c2ccc([N+](=O)[O-])cc2)N(S(=O)(=O)c2ccc(C)cc2)C1 (stereo not given) has composite z-score reaching or exceeding 1?
Output: condition not met

Task: Is it the case that CCCCCCCCCCC(O)C1C=CC2C(=O)N(Cc3ccccc3)C(=O)C2N1n1cnnc1 (stereo not given) has composite z-score reaching or exceeding 1?
Output: condition not met

Task: Is it the case that CCCNC(=O)[C@@H]1c2ccccc2C(=O)N(Cc2ccccc2)[C@H]1c1ccc(CO)cc1 has composite z-score reaching or exceeding 1?
Output: condition not met

Task: Is it the case that O=C1N(CCS(=O)(=O)c2ccccc2)Cc2ccccc2[C@H]2OC(c3ccc(OCCCO)cc3)=N[C@@]12CCS(=O)(=O)c1ccccc1 has composite z-score reaching or exceeding 1?
Output: condition not met

Task: Is it the case that [N-]=[N+]=NCc1ccccc1C[C@]1(C(=O)NCCN2CCOCC2)N=C(c2ccc(OCCCO)cc2)O[C@H]1c1ccccc1N=[N+]=[N-] has composite z-score reaching or exceeding 1?
Output: condition met

Task: Is it the case that COc1cc2c(cc1OC)CN(C(=O)[C@@H]1[C@H]3C(=O)O[C@H](c4ccccc4)[C@H](c4ccccc4)N3[C@H](c3ccccc3OCCO)[C@@]13C(=O)Nc1ccc(C#CCNC(N)=O)cc13)CC2 has composite z-score reaching or exceeding 1?
Output: condition met

Task: Is it the case that COc1ccc(C(=O)Nc2cccc(CN3C(=O)[C@]4(O[C@H](CC(=O)N5CCC[C@H]5CO)[C@@H]([Si](C)(C)c5ccc(OC)cc5)[C@@H]4C)c4ccccc43)c2)cc1 has composite z-score reaching or exceeding 1?
Output: condition met

Task: Is it the case that COCCOC(=O)N1C(=O)[C@@]2(c3cc(C#CCCO)ccc31)[C@H](C(=O)NC[C@H](O)c1ccccc1)[C@H]1C(=O)O[C@H](c3ccccc3)[C@H](c3ccccc3)N1[C@@H]2c1ccc(O)cc1 has composite z-score reaching or exceeding 1?
Output: condition not met

Task: Is it the case that CC(=CC1CCCCC1)[C@@H](NC(=O)c1ccc(C(F)(F)F)cc1)c1ccc(-c2ccccc2)cc1 has composite z-score reaching or exceeding 1?
Output: condition not met

Task: Is it the case that NCCCCCCNC(=O)[C@H]1C[C@H]2C(=O)NCC(=O)N2[C@H]1c1cccc(OCCO)c1 has composite z-score reaching or exceeding 1?
Output: condition met

Task: Is it the case that CCC[C@@H]1C=C(C(=O)O)[C@H](c2ccc(C)cc2)N1S(=O)(=O)c1ccc(C)cc1 has composite z-score reaching or exceeding 1?
Output: condition not met

Task: Is it the case that [N-]=[N+]=NCc1ccccc1[C@@H]1OC(c2ccc(OCCCO)cc2)=N[C@]1(Cc1ccccc1N=[N+]=[N-])C(=O)NCc1ccccc1 has composite z-score reaching or exceeding 1?
Output: condition met

Task: Is it the case that COCCOC(=O)N1C(=O)[C@@]2(c3cc(C#CCC(C(=O)OC)C(=O)OC)ccc31)[C@H](c1ccccc1OCCO)N1[C@H](c3ccccc3)[C@H](c3ccccc3)OC(=O)[C@H]1[C@@H]2C(=O)N1CCc2cc(OC)c(OC)cc2C1 has composite z-score reaching or exceeding 1?
Output: condition met

* * *

Assay: COS7 lysate on small-molecule microarray, probe aHis, 635 nm (AID 1123);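 further: z-score combines 667nm fluorescence intensity with signal-to-noise per printed compound spot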
Conditions: COS7 cell lysate, fluorescence, higher = more signal
Classification by composite z-score follows these ranges: low bin = under 0.5, mid bin = from 0.5 up to 2, high bin = 2 and over

Task: Bin this entry: O=C1C2C=CC(C(O)c3ccc(-c4ccccc4)s3)N(n3cnnc3)C2C(=O)N1Cc1ccccc1 (stereo unspecified)
Output: mid bin

Task: Bin this entry: C=CCNC(=O)[C@@H]1[C@H]2C(=O)O[C@H](c3ccccc3)[C@H](c3ccccc3)N2[C@H](c2ccccc2OCCO)[C@@]12C(=O)Nc1ccc(C#CC3=CCCCC3)cc12
Output: high bin

Task: Bin this entry: C=CCC(OC(C)=O)[C@@H]1[C@@H](N(Cc2ccc(-c3ccccc3)cc2)C(=O)Cc2ccc(F)cc2)c2cc(OCCCO)ccc2N1C(=O)c1ccc2ccccc2n1 (stereo partly specified)
Output: low bin

Others:
Task: Bin this entry: O=C(O)[C@@]1(Cc2ccccc2)N=C(c2ccc(OCCCO)cc2)O[C@H]1c1ccccc1
Output: mid bin

Task: Bin this entry: COCC1=C2[C@@H](CCc3ccccc3)OB(O)C[C@@H]2[C@@H]2C(=O)N(Cc3ccccc3)C(=O)[C@@H]2C1
Output: mid bin

Task: Bin this entry: O=C1O[C@H](c2ccccc2)[C@H](c2ccccc2)N2[C@H]1[C@@H](C(=O)Nc1nc3ccccc3s1)[C@]1(C(=O)Nc3ccccc31)[C@H]2c1ccc(O)cc1
Output: mid bin

Task: Bin this entry: COc1ccc(C(O)C2C=CC3C(=O)N(c4ccccc4)C(=O)C3N2Nc2ccc([N+](=O)[O-])cc2)cc1OCc1ccccc1 (stereo unspecified)
Output: mid bin

Task: Bin this entry: C=CC(COC(C)=O)NS(=O)(=O)c1ccc(Br)cc1 (stereo unspecified)
Output: low bin

Task: Bin this entry: O=C(CS)NCCCCCCNC(=O)[C@H]1C[C@H]2C(=O)N3CCC[C@H]3C(=O)N2[C@H]1c1cccc(OCCO)c1
Output: high bin

* * *

Target: Calmodulin-1 (Homo sapiens) (UniProt P0DP23)
Experiment: CALM1 binders on microarrays, EGTA buffer, profiling panel, biochemical, small-molecule microarray, Cy5-labelled CALM1 (AID 1111);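 further: labelled calmodulin applied in Tris saline Tween buffer holding calcium plus EGTA and DTT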
Details: Cy5-CALM1 binding fluorescence, higher = more signal
composite z-score of 0.03 or higher: class 1. Under 0.03: class 0.

Use the examples below as a reference point.
Task: Is it the case that CCOC(=O)C1=CC[C@@H](c2ccccc2Cl)N(S(=O)(=O)c2ccc(C)cc2)C1 has composite z-score reaching or exceeding 0.03?
Output: class 1

Task: Is it the case that C=C(COC)/C(=C/C[C@H](OC(=O)c1ccncc1)c1cccc(OCCO)c1)c1cc(C(=O)OC)ccc1OC has composite z-score reaching or exceeding 0.03?
Output: class 0

Task: Is it the case that C=CC(=C)C1=CCO[C@@H]1[C@H]1CCCN1S(=O)(=O)c1ccccc1[N+](=O)[O-] has composite z-score reaching or exceeding 0.03?
Output: class 1

Task: Is it the case that O=C1O[C@@H](c2ccccc2)[C@@H](c2ccccc2)N2[C@@H](c3ccc(OCCO)cc3)[C@]3(C(=O)Nc4ccc(C#CC5=CCCCC5)cc43)[C@@H](C(=O)O)[C@H]12 has composite z-score reaching or exceeding 0.03?
Output: class 1

Task: Is it the case that CCOC(=O)C[C@H]1[C@H](OC(=O)c2ccc(C(=O)c3ccccc3)cc2)[C@@H](NC(=O)C2CCCCC2)c2cc(OCCCO)ccc2N1C(=O)c1ccccc1 has composite z-score reaching or exceeding 0.03?
Output: class 1

Others:
Task: Is it the case that O=C1C2C=CC(C(O)c3cccs3)N(Nc3ccccc3F)C2C(=O)N1c1ccccc1 (stereo not given) has composite z-score reaching or exceeding 0.03?
Output: class 0

Task: Is it the case that O=C1c2ccccc2[C@@]2(Cc3ccccc3N(Cc3ccccc3)C2=O)[C@H](c2ccc(CO)cc2)N1C1CCCCC1 has composite z-score reaching or exceeding 0.03?
Output: class 1

Task: Is it the case that COCCOC(=O)N1C(=O)[C@@]2(c3cc(C#CCC(C(=O)OC)C(=O)OC)ccc31)[C@H](C(=O)N1CCN(c3ncccn3)CC1)[C@H]1C(=O)O[C@H](c3ccccc3)[C@H](c3ccccc3)N1[C@@H]2c1ccc(OCCO)cc1 has composite z-score reaching or exceeding 0.03?
Output: class 1

Task: Is it the case that COCC1=C2[C@@H](CCc3ccccc3)OB(O)C[C@@H]2[C@@H]2C(=O)N(Cc3ccccc3)C(=O)[C@@H]2C1 has composite z-score reaching or exceeding 0.03?
Output: class 0

Task: Is it the case that CC(C)C(=C=CC[C@@H](O)c1ccccc1OCCO)C[C@@H](O)c1ccccn1 has composite z-score reaching or exceeding 0.03?
Output: class 0

Task: Is it the case that O=C(CS)NCCCCCCNC(=O)[C@@H]1C[C@@H]2C(=O)N3CCC[C@H]3C(=O)N2[C@@H]1c1ccc(O)cc1 has composite z-score reaching or exceeding 0.03?
Output: class 1
